Origin of the recorded values: PubChem BioAssay AID624057

test: lower pTau relative to total Tau in cells – cell-based, SH-SY5Y, ELISA, pTau Ser199, powder samples, dose response (AID 624057); conditions: measured here: cell survival (total Tau) top dose, at 35 µM, stronger effect = lower value
observable: viability (%)
Expressed in %, but write only the number.

Query CSc1ccccc1C1C2=C(CC(C)(C)CC2=O)Nc2n[nH]c(C)c21 (stereo unspecified) yields viability of 106

Query Cc1[nH]nc2c1C(c1cccc3nonc13)C1=C(CC(C)(C)CC1=O)N2 (stereo unspecified) yields viability of 112

Query Cc1[nH]nc2c1C(c1cccc(C#N)c1)C1=C(CC(C)(C)CC1=O)N2 (stereo unspecified) yields viability of 119

Query Cc1[nH]nc2c1[C@@H](c1ccccc1C(F)(F)F)C1=C(CC(C)(C)CC1=O)N2 yields viability of 110

Query Cc1[nH]nc2c1C(c1ccccc1F)C1=C(CC(C)(C)CC1=O)N2 (stereo unspecified) yields viability of 113

Query CC1(C)CC(=O)C2=C(C1)Nc1n[nH]c(C(F)(F)F)c1C2c1cccc(F)c1C(F)(F)F (stereo unspecified) yields viability of 57.1
